For each record, write down the corresponding IC50.
targetUnderTest: FGFR2 (h) (Homo sapiens, UniProt P21802)
Sequence (P21802 22-821): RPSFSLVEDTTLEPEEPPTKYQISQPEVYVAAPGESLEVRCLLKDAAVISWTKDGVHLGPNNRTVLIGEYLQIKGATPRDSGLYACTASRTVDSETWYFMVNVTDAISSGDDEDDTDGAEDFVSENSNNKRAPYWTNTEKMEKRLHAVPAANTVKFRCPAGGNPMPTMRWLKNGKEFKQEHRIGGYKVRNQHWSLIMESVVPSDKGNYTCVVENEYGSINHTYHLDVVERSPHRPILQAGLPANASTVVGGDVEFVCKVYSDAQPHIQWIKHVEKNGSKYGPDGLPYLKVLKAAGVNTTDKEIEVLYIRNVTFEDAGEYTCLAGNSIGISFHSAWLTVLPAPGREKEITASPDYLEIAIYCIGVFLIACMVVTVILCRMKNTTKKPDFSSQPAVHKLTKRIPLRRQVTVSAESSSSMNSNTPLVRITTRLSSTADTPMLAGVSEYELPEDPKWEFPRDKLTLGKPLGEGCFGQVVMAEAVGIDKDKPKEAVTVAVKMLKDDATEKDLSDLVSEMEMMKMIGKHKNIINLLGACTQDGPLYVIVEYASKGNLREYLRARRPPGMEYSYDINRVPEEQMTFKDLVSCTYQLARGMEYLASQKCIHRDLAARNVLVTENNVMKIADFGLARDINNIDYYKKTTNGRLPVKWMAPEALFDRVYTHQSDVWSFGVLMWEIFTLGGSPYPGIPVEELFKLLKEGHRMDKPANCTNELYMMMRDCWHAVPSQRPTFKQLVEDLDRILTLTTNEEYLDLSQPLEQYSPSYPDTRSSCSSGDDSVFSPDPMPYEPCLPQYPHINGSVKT
procedureText: FGFR2 (enzymatic assay), TR-FRET
Assay type: biochemical
conditionDescription: enzymatic assay; average values if tested multiple times; read-out: FGFR 2 pIC50 (converted)
Structures can show the parent of a compound that is named as a salt.
# unit: nM | format: bare number

Name the recorded IC50 for COc1cc(OC)c(F)c(N(Cc2ncc[nH]2)c2ccc3ncc(-c4cnn(C)c4)nc3n2)c1 [23-lactate salt] .
1.38

What would you report for "COc1cc(OC)c(F)c(N(Cc2cc[nH]n2)c2ccc3ncc(-c4cnn(C)c4)nc3n2)c1" ?
1.32

Would you kindly repeat that for COc1cc(OC)cc(N(Cc2ncc[nH]2)c2ccc3ncc(-c4cnn(C)c4)nc3n2)c1 [24-phosphate salt] ?
1.23

Now the compound "COc1cc(OC)c(F)c(N(Cc2ncccn2)c2ccc3ncc(-c4cnn(C)c4)nc3n2)c1"
12.6

Data origin: patent US9309242B2
